From: patent US20250026724A1

- Tested on: Viola tricolor (VIOTR)
- Measurement Notes: Post-emergence herbicidal action, greenhouse pot trial
- Format: in vivo
- Experimental Setup: 320 g/ha
Reported values of Post-emergence effect against VIOTR for individual entries
Recorded Metric: Post-emergence effect against VIOTR

INSERT INTO assay_data (compound, recorded_measurement) VALUES
  ('COC(=O)C(Oc1nn(-c2ncccc2F)c(-c2ccc(F)nc2)c1Br)SC (single isomer, unassigned)', '90%'),
  ('COC(=O)CCOC(=O)C(Oc1nn(-c2ncccc2F)c(-c2ccc(F)nc2)c1Br)SC (single isomer, unassigned) [Example I-22]', '90%'),
  ('COC(=O)CCOC(=O)C(Oc1nn(-c2ccccc2F)c(-c2ccc(F)nc2)c1I)SC (stereo not drawn)', '90%');
